Reported self-cleavage values for the following variants.
B1: CPEB3 Ribozyme (parent)
chain: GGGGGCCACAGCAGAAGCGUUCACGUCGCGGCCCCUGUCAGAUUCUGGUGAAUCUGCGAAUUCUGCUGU

- Variants of: B1
- assay-text: self-cleavage, relative activity (ratio to wild type); higher = more cleavage; co-transcriptional
Hey, just send me the number, nothing else.

[Q] Can you look up the measured self-cleavage of GGGGGCCACAGCAGAAGCGUUCACGUCGCGGCCCCUGUCAGCUUCUGGUGAAUCGGCGAAUUCUGCUGU [A42C U55G] for me?
[A] 0.285

[Q] Now the variant GGGGGCCACAGCAGACGCGUUCAGGUCGCGGCCCCUGUCAGAUUCUGGUGAAUCUGCGAAUUCUGCUGU [A16C C24G]
[A] 0.171

[Q] Now the variant AGGGGCCACAGCAGAAGCGUUCACGUCGCGGCCCCUGUCAGAUUCUGGUGAAUCAGCGAAUUCUGCUGU [G1A U55A]
[A] 0.059

[Q] Now the variant GGGGGCCACAGCAGAAGCGUUCACGUCGCGGCCUCUGUCAGAUUCUGGUAAAUCUGCGAAUUCUGCUGU [C34U G50A]
[A] 1.03

[Q] Now the variant GGGGGCCACAGCAGAAGCGUUCACGUCGCGGCCCCUGUCAGAUUCAGGUGAAUGUGCGAAUUCUGCUGU [U46A C54G]
[A] 0.971
